Recorded kon by entry
Target: T1, FLRT3-His monomeric fusion protein (Homo sapiens (Human), UniProt Q9NZU0 29-528)
T1 construct: also called FLRT3 monomer; not shown: His tag
T1 sequence: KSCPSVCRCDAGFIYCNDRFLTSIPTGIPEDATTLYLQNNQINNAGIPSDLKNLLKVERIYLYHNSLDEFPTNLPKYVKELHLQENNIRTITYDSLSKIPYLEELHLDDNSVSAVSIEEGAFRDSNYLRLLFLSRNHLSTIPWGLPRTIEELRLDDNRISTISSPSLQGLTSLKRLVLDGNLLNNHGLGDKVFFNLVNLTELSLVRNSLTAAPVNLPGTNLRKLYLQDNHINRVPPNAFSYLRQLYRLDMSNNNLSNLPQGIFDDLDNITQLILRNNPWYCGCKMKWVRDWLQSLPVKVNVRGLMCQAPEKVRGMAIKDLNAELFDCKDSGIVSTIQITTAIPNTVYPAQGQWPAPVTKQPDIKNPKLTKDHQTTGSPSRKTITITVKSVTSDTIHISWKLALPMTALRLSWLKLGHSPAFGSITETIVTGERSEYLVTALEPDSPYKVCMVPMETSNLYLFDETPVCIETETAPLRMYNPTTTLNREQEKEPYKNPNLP
Test: kinetic affinity measurement with FLRT3-His monomer (Table 1)

BINDER	kon, M⁻¹ s⁻¹
1H5 (antibody, V domains shown, Variable domains only) VH: EVQLQQSGPELVKPGASVKMSCKASGYTFTDYYMNWVKQSHGKSLEWIGRVNPSNGVTSYNQKFKGKAALTVDKSLSTAYMQLNSLTSEDSAVYYCARDFLMDYWGQGTSVTVSS VL: DIVMTQSHKFMSTSVGDRVTITCKASQDVGTAVAWYQQKPGQSPKLLIYWASTRHTGVPDRFTGSGSGTDFTLTISNVQSEDLADYFCQQYSSYPTFGGGTKLEIK	140000
14B7 (antibody, V domains shown, Variable domains only; also called FLRT3 mAb 14B7; antibody 14B7) VH: QVQLQQSGPELVKPGASVNISCKASGYAFGNSWMNWVKQRPGKGLEWIGWIYPGDGNANYNGKFKGKATLTADKSSSTAYMQLSSLTSEDSAVYFCARALYDYDGWFAYWGQGTLVTVSA VL: DIQMNQSPSSLSASLGDTITIACRASQNIDIWLSWYQQKPGSIPKLLIYKASNLHTGVPSRFSGSGSGTDFTLTISSLQPEDIATYYCLQGQSFPFTFGSGTKLEIK	436000
20C3 (antibody, V domains shown, Variable domains only) VH: EVKLEESGGGLVQPGGSMKLSCVVSGFTFSNYWMNWVRQSPEKGLEWVAQIRLKSDNYATHYAESVKGRFTISRDDSKSSVYLQMNNLRAEDTGIYYCTGESNIYYGYFDYWGQGTTLTVSS VL: QIVLTQSPAIMSASPGEKVTMTCSASSSVSYMHWYQQKSGTSPKRWIYDTSKLASGVPARFSGSGSGTSYSLTISSMEAEDAATYYCQQWSGNPYTFGGGTKLEIK	86200
12A4 (antibody, V domains shown, Variable domains only) VH: EVQLQQSGPELVKPGASVKMSCKASGYTFTDYYMNWVKQSHGKSLEWIGRVNPSNGGTTYNQRFKGKATLTVDESLSTAYMQLNSLTSEDSAVYYCARDFLMDYWGQGTSVTVSS VL: DIVMTQSHKFMSTSVGDRVSITCKASQDVGTAVTWYQQKPGLSPKLLFYWASTRHTGVPDRFTGSGSGTDFTLTISNVQSEDLADYFCHQYSNYPTFGGGTKLEIK	133000
